Listing of recorded TGI by entry.
System: K-562 leukemia
Assay: NCI tumour cell line growth inhibition, 48 h

Task: Note down TGI recorded for `CCC(=O)Oc1ccc2c(c1)c(=O)c1c(NCCCN(C)C)ccc3nnn2c31`
Result: > 100 µM

Task: Let me know recorded TGI for `O=c1c2ccccc2nc(Cc2nc(-c3ccc(Cl)cc3)cs2)n1-c1ccc(Cl)cc1` , thanks.
Result: > 100 µM

Task: Provide measured TGI value, entry: `COC(=O)Nc1nc2ccc(C3(c4ccc(F)cc4)OCCO3)cc2[nH]1`
Result: > 100 µM

Task: # return recorded TGI for entry `O=C1c2ccsc2C(=O)c2sc(CO)cc21`
Result: 2.48 µM

Next:
Task: Determine from records and report TGI for `COc1ccc(CN2CC(C)(C)C2=O)c(OC)c1`
Result: > 100 µM

Task: Tell me TGI reported for `O=C(c1cccs1)N1CCc2ccccc2C1`
Result: > 100 µM

###

Form field: GI50 (one value per entry).
System: IGROV1 ovarian
Assay: NCI tumour cell line growth inhibition, 48 h

Task: Specify GI50 for `CN1CCN(CCCNc2nc3ccc(Oc4ccc(NC(=O)Nc5cc(C(F)(F)F)ccc5F)cc4)cc3[nH]2)CC1` , system IGROV1 ovarian.
Result: 9620 nM

Further cases:
Task: Please report the measured GI50 for `COc1cc2c(cc1OCCCCC(=O)Nc1cc3c4ccccc4ccc3c3ccccc13)N=C[C@@H]1CCCN1C2=O` tested on IGROV1 ovarian.
Result: 2110 nM

Task: # return GI50 of `COc1cc2ncnc(-n3ncc4cc(NC(=O)Nc5ccccc5)ccc43)c2cc1OC` (system: IGROV1 ovarian)
Result: 427 nM

Task: Report measured GI50 on IGROV1 ovarian; entry: `C/C(=N\Nc1ccc(Cl)cn1)c1ccc2ccccc2n1`
Result: 2880 nM

Task: Report GI50 on IGROV1 ovarian for this entry: `CC/C=C\C[C@H](O)C/C=C1/C(=O)C=C[C@@H]1C/C=C\CCCC(=O)OC`
Result: 3050 nM

###

Tested on: SF-539 CNS
Assay: NCI tumour cell line growth inhibition, 48 h
valueKind: TGI (µM)
Provide only the numeric value, understood in µM.

Task: Give me measured TGI, please, for this molecule: `CC(C)=C[C@H]1CCC2(OCCO2)[C@]1(C)COCc1ccccc1`
Result: 61.7

Task: Report TGI, nothing else, for this molecule: CC(CC[C@@]1(C)C(=O)CCC2O[C@]21C)[C@H]1C[C@@H](c2ccoc2)OC1=O (some centres undefined)
Result: 69.1

Task: Let me know recorded TGI for `Cc1cc2ncnn2cc1Nc1ncc2c(n1)n(C1CCOCC1)c(=O)n2C` , thanks.
Result: 51.5

Task: Item `CCC(=O)Oc1ccc2c(c1)c(=O)c1c(NCCCN(C)C)ccc3nnn2c31` : provide TGI
Result: 13.9

Task: Note TGI for the molecule shown: `COC(=O)Nc1nc2ccc(S(=O)(=O)SC)cc2[nH]1`
Result: 39.3

Please find the next molecule below.
Task: Identify measured TGI associated with `Cc1ccc2c3c1O[C@H]1c4[nH]c5ccccc5c4C[C@@]4(O)[C@@H](C2)N(CC2CC2)CC[C@]314`
Result: 31.6

###

Reported GI50 values are given for each entry in this list.
Tested on: SK-MEL-2 melanoma
Assay: NCI tumour cell line growth inhibition, 48 h

// known answers, use as guide
Task: Note GI50 for the molecule shown: CC12OC(C(=O)C13CC3)C1C(=O)c3ccc4c(ccc5ccccc54)c3C(=O)C12 (stereo unspecified)
Result: 53.1 µM

Task: Input `NS(=O)(=O)c1ccc(-c2ccc3c(NC(=O)C4CC4)n[nH]c3c2)cc1` , output reported GI50.
Result: > 25 µM

Task: Write down GI50 measured for item `COc1cc2oc(-c3ccc(O)cc3)c(OC)c(=O)c2c(O)c1OC`
Result: 39.2 µM

More entries:
Task: Supply GI50 value. Item: CCCC(CCC)NCC(O)c1cc(-c2ccc(C(F)(F)F)cc2)nc(C(F)(F)F)c1 (stereo unspecified)
Result: 2.27 µM

Task: Read the entry `C=CCCCCC/C=C\[C@@H](O)C#CC#C/C=C/CO` and write its reported GI50.
Result: > 100 µM

Task: Item `Cc1cc2ncnn2cc1Nc1ncc2c(n1)n(C1CCOCC1)c(=O)n2C` : provide GI50
Result: 12.2 µM

###

Test system: M14 melanoma
Assay: NCI tumour cell line growth inhibition, 48 h
valueKind: GI50

Task: Respond only with GI50 recorded for `COc1cc2oc(-c3ccc(O)cc3)c(OC)c(=O)c2c(O)c1OC`
Result: 47200 nM

Task: Recall and state the measured GI50 for `c1ccc(Sc2ccc(Cc3nc4cc5ccccc5cc4[nH]3)cc2)cc1` .
Result: 21000 nM

Task: Return value of GI50 for input `C/C(=N\Nc1ccc(Cl)cn1)c1ccc2ccccc2n1` , no commentary.
Result: 2390 nM

Task: Identify GI50 associated with the compound `C=C1C(=O)O[C@H]2[C@H]1CC/C(COC(=O)NCCCCNC(=O)OC/C1=C/CC[C@@]3(C)O[C@H]3[C@H]3OC(=O)C(=C)[C@@H]3CC1)=C\CC[C@@]1(C)O[C@@H]21`
Result: 1970 nM

###

Tested on: HCT-15 colon
Assay: NCI tumour cell line growth inhibition, 48 h
Listed below: TGI values for each entry.
Please respond with the number in µM and leave the unit unwritten.

Task: Please give the documented TGI of CCN(CC)C1CC(O[C@H]2C[C@](O)(C(=O)CO)Cc3c(O)c4c(c(O)c32)C(=O)c2c(OC)cccc2C4=O)OC(C)C1O (stereo not given in full)
Result: 3.54

Task: Give a short answer stating reported TGI for CCCCC1Cc2ccccc2-c2nc3ccccc3n21 (stereo not given) .
Result: 28.4

Now consider the entry below.
Task: Query TGI for `Cc1cc(C(=O)Nc2ccc3cc(CN4CCOCC4)ccc3n2)c(C)n1-c1ccccc1`
Result: 20.4

###

Tested on: MDA-MB-231 breast
Test: NCI tumour cell line growth inhibition, 48 h
List of TGI values.
Write the answer as a number in µM, unit excluded.

Task: Answer with the recorded TGI of CC(=O)O[C@H]1CCC2[C@@H]3CC[C@]4(C)CC(=O)C=C[C@]4(C)C3CC[C@@]21C (some centres not stated) only.
Result: 77.9

Task: For the compound `Cc1ccc(N=C/C=C(\Nc2ccc(C)cc2)c2ccc(Cl)cc2)cc1` , give its measured TGI value.
Result: 46.6

Task: Write down TGI measured for item `O=C1/C(=C(/c2ccccc2)N2CCOCC2)Cc2ccccc21`
Result: 5.48

Task: Specify TGI for `COc1cc2c(cc1OCCCCC(=O)Nc1cc3c4ccccc4ccc3c3ccccc13)N=C[C@@H]1CCCN1C2=O` and stop.
Result: 17

Task: Identify measured TGI corresponding to `Cc1cc(NC(=S)SCc2ccc(F)cc2)c([N+](=O)[O-])cc1C`
Result: 34.6

Task: Provide TGI value for the following compound: `CSc1nnc(SC)nn1`
Result: 39.7

###

Parameter: TGI. Scope: all listed entries.
System: SN12C renal
Assay: NCI tumour cell line growth inhibition, 48 h

Worked examples follow.
Task: Look up TGI of `O=c1cc(N2CCCC2)[nH]c(=O)n1-c1cccc(Cl)c1` and report it.
Result: > 100 µM

Task: Return reported TGI. Input compound: `c1ccc(Sc2ccc(Cc3nc4cc5ccccc5cc4[nH]3)cc2)cc1`
Result: 76.5 µM

Task: Look up and state reported TGI for c1ccc(C2N3CCCCC3[C@@H]3c4[nH]c5ccccc5c4CCN23)nc1 (some centres undefined)
Result: > 100 µM

Task: Assign TGI to the following record: `Nc1nc(Nc2cccnc2)sc1C(=O)c1ccccc1F`
Result: > 100 µM

Task: Give the reported value of TGI for this record: `C1=Cc2cc3c(c4nccc(c24)N1)OCO3`
Result: > 39.2 µM

Task: Answer with the recorded TGI of CN(C)CC1CCCC(CN(C)C)C1OC(=O)c1ccccc1 (centres undefined) only.
Result: > 100 µM

Task: Recall and state the measured TGI for CCCCNC1CCCCC[C@H]1O (some centres undefined) .
Result: > 100 µM

Task: Indicate the recorded TGI value for this compound: CCN(CC)C1CC(O[C@H]2C[C@](O)(C(=O)CO)Cc3c(O)c4c(c(O)c32)C(=O)c2c(OC)cccc2C4=O)OC(C)C1O (some centres undefined)
Result: 1.25 µM

Task: Quickly give me recorded TGI for `CSc1nnc(SC)nn1`
Result: 39.7 µM

Task: For the compound CC(=O)O[C@H]1CCC2[C@@H]3CC[C@]4(C)CC(=O)C=C[C@]4(C)C3CC[C@@]21C (some centres undefined) , give its reported TGI.
Result: 55.9 µM

Continuing:
Task: Respond only with TGI recorded for `Nc1nc(-c2ccccc2)cc(-c2ccc(OCc3ccccc3)cc2O)n1`
Result: > 100 µM

Task: Determine from records and report TGI for `CSc1cc(Cl)c(C)cc1S(=O)(=O)NC(=O)NNc1cccc(C(F)(F)F)n1`
Result: > 100 µM

Task: State its TGI for this compound: `COC(=O)c1cc2c(cc1Cl)Sc1nnc(Nc3ccc(C)cc3)n1S2(=O)=O`
Result: 36.5 µM

Task: For the compound CCCCCCCCCCCCCCCC(=O)OCC(C[As](=O)(O)O)OC(=O)CCCCCCCCCCCCCCC (centres undefined) , give its measured TGI value.
Result: > 100 µM
